Test system: Monocotyledonous and dicotyledonous test plants
assay-text: Post-emergence herbicidal action, greenhouse pot test, sprayed at the 2- to 3-leaf stage, 9-level rating after 2 to 3 weeks
Assay type: in vivo
stated-conditions: Echino., 250 g/ha, rated after 2 to 3 weeks, 9-level scale
measure-name: Post-emergence action rating, Echino.
# output: bare number, no unit

Worked examples, 8 molecules total:
molecule: O=C(C1=C(O)C2CCC(C2)C1=O)c1ccc(C(F)(F)F)nc1COCc1ccccc1 (stereo not drawn) [A67-B52]
reported-value: 2
//
molecule: O=C(C1=C(O)C2CCC(C2)C1=O)c1ccc(C(F)(F)F)nc1COCC1COCO1 (stereo not drawn) [A852-B52]
reported-value: 4
//
molecule: O=C(C1=C(O)C2CCC(C2)C1=O)c1ccc(C(F)(F)F)nc1COCC1CCCO1 (stereo not drawn) [A848-B52]
reported-value: 2
//
molecule: COc1cc(OC)nc(SCc2nc(C(F)(F)F)ccc2C(=O)C2=C(O)C3CCC(C3)C2=O)n1 (stereo not drawn) [A830-B52]
reported-value: 3
//
molecule: CCN(CC)CC.O=C(C1=C(O)C2CCC(C2)C1=O)c1ccc(C(F)(F)F)nc1COC1CCCCO1 (stereo not drawn) [A28-B52 (Et3NH+)]
reported-value: 2
//
molecule: O=C(C1=C(O)C2CCC(C2)C1=O)c1ccc(C(F)(F)F)nc1COCc1cccs1 (stereo not drawn) [A854-B52]
reported-value: 2
//
molecule: COCc1nc(C(F)(F)F)ccc1C(=O)c1c(C)nn(C)c1O [A1-C2]
reported-value: 4
//
molecule: C#CCOCc1nc(C(F)(F)F)ccc1C(=O)C1=C(O)C2CCC(C2)C1=O (stereo not drawn) [A18-B52]
reported-value: 2

Challenge: # query: Post-emergence action rating, Echino. of entry O=C(C1=C(O)C2CCC(C2)C1=O)c1ccc(C(F)(F)F)nc1COC1CCCCC1 (stereo not drawn) [A27-B52]
Response given: 2

Challenge: # query: Post-emergence action rating, Echino. of entry CN(Cc1nc(C(F)(F)F)ccc1C(=O)C1=C(O)C2CCC(C2)C1=O)S(C)(=O)=O (stereo not drawn) [A864-B52]
Response given: 2

Challenge: # query: Post-emergence action rating, Echino. of entry CN(Cc1nc(C(F)(F)F)ccc1C(=O)c1cnn(C)c1O)S(C)(=O)=O [A864-C5]
Response given: 2

Challenge: # query: Post-emergence action rating, Echino. of entry COCCOCc1nc(C(F)(F)F)ccc1C(=O)C1=C(O)CCC(C)(C)C1=O [A10-B3]
Response given: 3

Challenge: # query: Post-emergence action rating, Echino. of entry CC(C)(C)C(=O)OC1=C(C(=O)c2ccc(C(F)(F)F)nc2COCCO)C(=O)C2CCC1C2 (stereo not drawn) [A856-B112]
Response given: 5

Challenge: # query: Post-emergence action rating, Echino. of entry CSc1nnc(SCc2nc(C(F)(F)F)ccc2C(=O)C2=C(O)C3CCC(C3)C2=O)s1 (stereo not drawn) [A829-B52]
Response given: 4

Challenge: # query: Post-emergence action rating, Echino. of entry CC(C)OCc1nc(C(F)(F)F)ccc1C(=O)c1cnn(C)c1O [A3-C5]
Response given: 3

Challenge: # query: Post-emergence action rating, Echino. of entry O=C(C1=C(O)C2CCC(C2)C1=O)c1ccc(C(F)(F)F)nc1COC1COC1 (stereo not drawn) [A24-B52]
Response given: 2

Challenge: # query: Post-emergence action rating, Echino. of entry CCOCCOCc1nc(C(F)(F)F)ccc1C(=O)c1cnn(C)c1O [A11-C5]
Response given: 2

Challenge: # query: Post-emergence action rating, Echino. of entry COCCOCc1nc(C(F)F)ccc1C(=O)C1=C(O)C2CCC(C2)C1=O (stereo not drawn) [A646-B52]
Response given: 2
